- Tested on: Plasmodium berghei
- Method Summary: Screen against P. berghei liver stage (PbLuc), transformed with Luciferase, at 10uM
- Format: functional, HepG2
- Details: tested at 10 uM
Hit rate of the full screen: of about 69,000 compounds, about 8,600 (12%) showed an effect of 50% or more. Many of the other results were omitted from the sample, so strong results are more common in it than they were.
# INHIBITION annotations
In your response, the unit should come after the numeric value.

Compound: CCn1ncnc1CN1CCc2[nH]cnc2C1Cc1ccccc1 (configuration not stated)
INHIBITION: -56.1%
//
Compound: CCN(C)Cc1cccc(CNC(=O)CSCc2ccccn2)c1
INHIBITION: 20.8%
//
Compound: CN(C)c1ccc(CNC(=O)NCCc2ccccn2)cn1
INHIBITION: -22.9%

-- ask State its INHIBITION for this compound: CO[C@H]1CN(Cc2c(C)ccc3ncccc23)CC[C@H]1N
-- reply -69.3%

-- ask State its INHIBITION for this compound: O=C(c1ccc2[nH]nnc2c1)N1CC[C@H](O)[C@]2(CCCO2)C1
-- reply 1.62%

-- ask State its INHIBITION for this compound: CCC(C)NC(=O)c1cc(S(N)(=O)=O)c(Br)s1 (configuration not stated)
-- reply 14%

-- ask State its INHIBITION for this compound: Cc1ccc(O)c(C(=O)N2C[C@@H](C(=O)O)[C@H](c3ccccc3)C2)c1
-- reply 19.4%

-- ask State its INHIBITION for this compound: CSCCC1c2nc[nH]c2CCN1Cc1cc(Cl)ccc1O (configuration not stated)
-- reply 70.6%

-- ask State its INHIBITION for this compound: CSCCC1c2nc[nH]c2CCN1Cc1ccccc1C#N (configuration not stated)
-- reply 40.9%

-- ask State its INHIBITION for this compound: O=C(O)C1c2nc[nH]c2CCN1Cc1ccccc1-c1ccccc1 (configuration not stated)
-- reply 12.7%

-- ask State its INHIBITION for this compound: CNC(=O)[C@@H]1[C@@H](c2ccccc2)CN2CCN(Cc3ccccn3)C[C@H]12
-- reply 20%

-- ask State its INHIBITION for this compound: CC(c1nc(C2CC2)no1)N(C)Cc1ccc(C#N)cc1 (configuration not stated)
-- reply -4.4%
